Every entry's value here was drawn from patent US9873674B2.

Tested on: IL-2
Experiment Notes: IL-2 expression, intracellular cytokine staining and flow cytometry in CD4+ T cells
Type: cell-based, mouse or human
Measurement Context: anti-CD3+anti-CD28 for 6 hours, % cytokine-expressing CD4+ T cells; data not shown
Observable: IC50

Quick check: IC50 of `COc1ccc(C=C2C(=O)NC(=S)NC2=O)c(OC)c1` ?
~6 µM
